Collected EC50 values appear next to each entry.
Molecular target: FPR2 (Homo sapiens)
Sequence (P25090 1-351): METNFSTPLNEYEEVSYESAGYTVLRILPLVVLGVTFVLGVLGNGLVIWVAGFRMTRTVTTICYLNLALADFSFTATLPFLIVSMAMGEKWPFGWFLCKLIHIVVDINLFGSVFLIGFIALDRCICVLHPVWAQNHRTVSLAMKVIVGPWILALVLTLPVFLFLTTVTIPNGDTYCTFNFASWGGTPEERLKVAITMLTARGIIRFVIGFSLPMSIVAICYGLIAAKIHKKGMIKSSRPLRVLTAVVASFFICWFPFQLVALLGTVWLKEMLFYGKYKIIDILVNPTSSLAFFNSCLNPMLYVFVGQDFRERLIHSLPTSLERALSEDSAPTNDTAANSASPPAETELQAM
Test: Change in calcium activity by peptide (Fura-2) in RBL cells overexpressing FPR2
Conditions: calcium activity (Fura-2), graded per Table 3, read-out: EC50 for [Ca^2+] FPR2
Peptide text beside a SMILES is read from it.

The examples below pair each entry with its known result.
* CSCC[C@H](NC(C)=O)C(=O)N[C@@H](CCCCN)C(=O)N[C@@H](Cc1ccc(O)cc1)C(=O)N[C@@H](Cc1c[nH]c2ccccc12)C(=O)N[C@@H](Cc1ccc(O)cc1)C(=O)N[C@H](CCSC)C(N)=O [Peptide 90] (HELM PEPTIDE1{[ac].M.K.Y.W.Y.[dM].[am]}$$$$V2.0) | 11 to 100 nM
* CSCC[C@H](NC(=O)[C@@H](N)CCCCN)C(=O)N[C@@H](CCCCN)C(=O)N[C@@H](Cc1ccc(O)cc1)C(=O)N[C@@H](CCCCN)C(=O)N[C@H](C(=O)N[C@H](CCSC)C(N)=O)C(C)C [Peptide 9] (HELM PEPTIDE1{K.M.K.Y.K.V.[dM].[am]}$$$$V2.0) | 11 to 100 nM
* CCCC(=O)N[C@@H](CCCNC(=N)N)C(=O)N[C@@H](CCSC)C(=O)N[C@@H](CCCNC(=N)N)C(=O)N[C@@H](Cc1ccc(O)cc1)C(=O)N[C@@H](Cc1c[nH]c2ccccc12)C(=O)N1CCC[C@H]1C(=O)N[C@H](CCSC)C(N)=O [Peptide 108] (HELM PEPTIDE1{[CCCC(=O)[*:2]].R.M.R.Y.W.P.[dM].[am]}$$$$V2.0) | < 10 nM
* CSCC[C@H](NC(=O)[C@@H](N)Cc1c[nH]cn1)C(=O)N[C@@H](CCCNC(=N)N)C(=O)N[C@@H](Cc1ccc(O)cc1)C(=O)N[C@@H](CCCCN)C(=O)N[C@@H](Cc1ccc(O)cc1)C(=O)N[C@H](CCSC)C(N)=O [Peptide 44] (HELM PEPTIDE1{H.M.R.Y.K.Y.[dM].[am]}$$$$V2.0) | 11 to 100 nM
* CSCC[C@@H](NC(=O)[C@H](Cc1ccc(O)cc1)NC(=O)[C@H](CCCCN)NC(=O)[C@H](Cc1ccc(O)cc1)NC(=O)[C@H](CCCNC(=N)N)NC(=O)[C@H](Cc1c[nH]c2ccccc12)NC(=O)[C@H](CCCNC(=N)N)NC(C)=O)C(N)=O [Peptide 33] (HELM PEPTIDE1{[ac].R.W.R.Y.K.Y.[dM].[am]}$$$$V2.0) | < 10 nM

q: Can you look up the measured EC50 of CSCC[C@H](NC(=O)[C@@H](N)Cc1c[nH]cn1)C(=O)N[C@@H](CCCNC(=N)N)C(=O)N[C@@H](Cc1ccc(O)cc1)C(=O)N[C@@H](CCCCN)C(=O)N1CCC[C@H]1C(=O)N[C@H](CCSC)C(N)=O [Peptide 58] (HELM PEPTIDE1{H.M.R.Y.K.P.[dM].[am]}$$$$V2.0) for me?
a: < 10 nM

q: Query: EC50; subject: CC[C@H](C)[C@H](N)C(=O)N[C@@H](CCCCN)C(=O)N[C@@H](Cc1ccccc1)C(=O)N[C@@H](CCCCN)C(=O)N1CCC[C@H]1C(=O)N[C@H](CCSC)C(N)=O [Peptide 133] (HELM PEPTIDE1{I.K.F.K.P.[dM].[am]}$$$$V2.0)
a: < 10 nM

The measurements presented in this section are drawn from patent US20250361268A1.
